# experimental target: KIT (Homo sapiens, UniProt P10721)
# Construct: purchased Eurofins/DiscoverX
# Sequence (P10721 26-976): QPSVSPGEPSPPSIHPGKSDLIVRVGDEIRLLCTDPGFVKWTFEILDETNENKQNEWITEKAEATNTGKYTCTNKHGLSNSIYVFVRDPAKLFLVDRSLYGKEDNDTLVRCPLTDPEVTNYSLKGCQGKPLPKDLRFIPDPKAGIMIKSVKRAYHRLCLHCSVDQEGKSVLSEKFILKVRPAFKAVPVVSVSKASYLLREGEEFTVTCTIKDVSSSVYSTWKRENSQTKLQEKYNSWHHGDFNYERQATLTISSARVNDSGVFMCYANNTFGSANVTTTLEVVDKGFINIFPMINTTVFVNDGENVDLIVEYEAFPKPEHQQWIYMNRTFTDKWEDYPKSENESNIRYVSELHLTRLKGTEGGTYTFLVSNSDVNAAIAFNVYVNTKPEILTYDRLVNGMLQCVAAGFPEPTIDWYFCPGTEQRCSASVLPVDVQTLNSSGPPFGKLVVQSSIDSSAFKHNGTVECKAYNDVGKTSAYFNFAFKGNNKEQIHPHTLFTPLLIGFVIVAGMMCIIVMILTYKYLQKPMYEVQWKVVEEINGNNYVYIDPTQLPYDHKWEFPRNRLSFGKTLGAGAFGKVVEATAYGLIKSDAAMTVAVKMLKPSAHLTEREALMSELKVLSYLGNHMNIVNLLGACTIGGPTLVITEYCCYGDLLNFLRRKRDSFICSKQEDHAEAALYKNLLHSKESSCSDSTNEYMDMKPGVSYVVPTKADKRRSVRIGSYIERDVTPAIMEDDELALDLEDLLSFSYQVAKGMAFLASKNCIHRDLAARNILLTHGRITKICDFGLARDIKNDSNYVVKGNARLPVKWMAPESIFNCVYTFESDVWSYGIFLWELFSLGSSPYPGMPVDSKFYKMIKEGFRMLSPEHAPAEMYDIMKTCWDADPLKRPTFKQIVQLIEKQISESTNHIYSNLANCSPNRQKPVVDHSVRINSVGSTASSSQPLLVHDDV
# method summary: Eurofins/DiscoverX cell free kinase assay, percent control
# Assay type: binding
# settings: 1000 nM compound
For each of the compounds below, state its per_control_1000nM KIT.
Answers are plain numbers, in percent control.

compound	per_control_1000nM KIT (percent control)
Cc1cc(-c2cc(NC(=O)c3ccc(C(C)(C)C)cc3)[nH]n2)ccn1	0
Cn1cc(-c2cc(NC(=O)c3ccc(C(C)(C)C)cc3)n[nH]2)ccc1=O	8.2
CC(C)(C)c1ccc(C(=O)Nc2cc(-c3ccccc3)n[nH]2)cc1	0

Query string: Look up and state reported per_control_1000nM KIT for "COc1ccc(-c2cc(NC(=O)c3ccc(C(C)(C)C)cc3)[nH]n2)cc1"
Result string: 0

* * *

For each of the compounds below, state its per_control_10000nM TAF1(2).
# experimental target: TAF1(2) (Homo sapiens)
# Construct: with specific focus on TAF1(2) bromodomain assessed by the KdELECT assay; purchased Eurofins/DiscoverX
# Sequence (P21675 1519-1628 limits assumed): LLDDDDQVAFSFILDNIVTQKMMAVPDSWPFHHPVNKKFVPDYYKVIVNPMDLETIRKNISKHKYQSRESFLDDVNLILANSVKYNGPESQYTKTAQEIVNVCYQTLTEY
# method summary: Eurofins/DiscoverX cell free bromodomain assay, percent control
# Type: binding
# settings: 10000 nM compound
Give bare numbers, in percent control.

Answered examples (3):
compound	units label	per_control_10000nM TAF1(2)
Cc1cc(-c2cc(NC(=O)c3ccc(C(C)(C)C)cc3)[nH]n2)ccn1 [Compound 3i-1246]	percent control	3.6
COc1ccc(-c2cc(NC(=O)c3ccc(C(C)(C)C)cc3)[nH]n2)cc1 [Compound 3i-1103]	percent control	2.6
Cn1cc(-c2cc(NC(=O)c3ccc(C(C)(C)C)cc3)n[nH]2)ccc1=O [Compound 3i-1248]	percent control	0.05

Pending compound:
Query string: Report per_control_10000nM TAF1(2) under test system TAF1(2) (Homo sapiens) for CC(C)(C)c1ccc(C(=O)Nc2cc(-c3ccccc3)n[nH]2)cc1 [Compound 3i-1247] .
Result string: 78

* * *

# System: FLT3(ITD)
# method summary: Eurofins/DiscoverX cell free kinase assay, percent control
# Format: binding
# settings: 1000 nM compound
For each of the compounds below, state its per_control_1000nM FLT3(ITD).
Numbers only, in percent control.

Answered examples (3):
compound	per_control_1000nM FLT3(ITD) / percent control
CC(C)(C)c1ccc(C(=O)Nc2cc(-c3ccccc3)n[nH]2)cc1	3.2
Cc1cc(-c2cc(NC(=O)c3ccc(C(C)(C)C)cc3)[nH]n2)ccn1	2.7
COc1ccc(-c2cc(NC(=O)c3ccc(C(C)(C)C)cc3)[nH]n2)cc1	1.2

Pending compound:
Query string: Report per_control_1000nM FLT3(ITD) under test system FLT3(ITD) for "Cn1cc(-c2cc(NC(=O)c3ccc(C(C)(C)C)cc3)n[nH]2)ccc1=O" .
Result string: 0

* * *

For each of the molecules below, state its per_control_10000nM FLT3(D835V).
# experimental target: FLT3(D835V) (Homo sapiens, UniProt P36888, D835V)
# Construct: purchased Eurofins/DiscoverX
# method summary: Eurofins/DiscoverX cell free kinase assay, percent control
# Assay type: binding
# settings: 10000 nM compound
Numbers only, in percent control.

compound	units label	measured value
Cn1cc(-c2cc(NC(=O)c3ccc(C(C)(C)C)cc3)n[nH]2)ccc1=O	percent control	0.7
CC(C)(C)c1ccc(C(=O)Nc2cc(-c3ccccc3)n[nH]2)cc1	percent control	0
Cc1cc(-c2cc(NC(=O)c3ccc(C(C)(C)C)cc3)[nH]n2)ccn1	percent control	0.55

Pending molecule:
Query string: Report per_control_10000nM FLT3(D835V) under test system FLT3(D835V) (Homo sapiens, UniProt P36888, D835V) for "COc1ccc(-c2cc(NC(=O)c3ccc(C(C)(C)C)cc3)[nH]n2)cc1" .
Result string: 0
